# Target or system: human NHE-3 (Homo sapiens)
# Construct: expressed in transfected cells; host or cells: Opossum kidney (OK) cells (ATCC), transfected by electroporation
# Sequence (P48764 26-834): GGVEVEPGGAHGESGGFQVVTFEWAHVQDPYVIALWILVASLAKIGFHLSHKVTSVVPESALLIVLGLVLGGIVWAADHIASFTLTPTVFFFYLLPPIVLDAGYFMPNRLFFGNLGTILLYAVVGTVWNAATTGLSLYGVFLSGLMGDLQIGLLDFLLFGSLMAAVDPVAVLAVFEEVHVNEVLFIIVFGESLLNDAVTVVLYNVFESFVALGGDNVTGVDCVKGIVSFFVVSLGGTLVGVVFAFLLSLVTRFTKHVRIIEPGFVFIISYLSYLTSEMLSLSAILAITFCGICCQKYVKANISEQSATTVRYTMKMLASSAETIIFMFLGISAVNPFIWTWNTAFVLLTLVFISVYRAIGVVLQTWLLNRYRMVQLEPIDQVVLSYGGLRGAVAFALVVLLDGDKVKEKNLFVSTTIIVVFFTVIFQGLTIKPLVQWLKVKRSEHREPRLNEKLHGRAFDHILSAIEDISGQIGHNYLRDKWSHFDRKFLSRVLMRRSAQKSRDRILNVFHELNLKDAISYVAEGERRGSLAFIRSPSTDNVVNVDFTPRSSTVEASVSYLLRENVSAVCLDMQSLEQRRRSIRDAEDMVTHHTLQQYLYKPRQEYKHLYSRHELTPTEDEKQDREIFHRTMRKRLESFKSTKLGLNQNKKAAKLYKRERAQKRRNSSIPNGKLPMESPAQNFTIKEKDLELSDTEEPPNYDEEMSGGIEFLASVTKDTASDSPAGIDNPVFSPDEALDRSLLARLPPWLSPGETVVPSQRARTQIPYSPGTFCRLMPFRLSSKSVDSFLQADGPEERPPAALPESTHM
# Method: Cell-based assay of NHE-3 activity (human NHE3 inhibition assay)
# Test conditions: OK cells with human NHE-3 gene, BCECF pH dye, 0-30 μM test compound

Compound structure	Human NHE3 pIC50
CN1Cc2c(Cl)cc(Cl)cc2[C@H](c2cccc(S(=O)(=O)NCCOCCOCCOCCNC(=O)CN(CCN(CC(=O)NCCOCCOCCOCCNS(=O)(=O)c3cccc([C@@H]4CN(C)Cc5c(Cl)cc(Cl)cc54)c3)CC(=O)NCCOCCOCCOCCNS(=O)(=O)c3cccc([C@@H]4CN(C)Cc5c(Cl)cc(Cl)cc54)c3)CCN(CC(=O)NCCOCCOCCOCCNS(=O)(=O)c3cccc([C@@H]4CN(C)Cc5c(Cl)cc(Cl)cc54)c3)CC(=O)NCCOCCOCCOCCNS(=O)(=O)c3cccc([C@@H]4CN(C)Cc5c(Cl)cc(Cl)cc54)c3)c2)C1	B (B NHE3 pIC50 5-7)
CCCCCCCCCCC(=O)NC(CCC(=O)NCCOCCOCCNS(=O)(=O)c1cccc([C@@H]2CN(C)Cc3c(Cl)cc(Cl)cc32)c1)(CCC(=O)NCCOCCOCCNS(=O)(=O)c1cccc([C@@H]2CN(C)Cc3c(Cl)cc(Cl)cc32)c1)CCC(=O)NCCOCCOCCNS(=O)(=O)c1cccc([C@@H]2CN(C)Cc3c(Cl)cc(Cl)cc32)c1	B (B NHE3 pIC50 5-7)

====

Documented IC50 across a set of compounds
# Target or system: Rat NHE-3 (Rattus norvegicus, UniProt P26433)
# Construct: expressed in transfected cells; host or cells: Opossum kidney (OK) cells (ATCC), transfected by electroporation
# Sequence (P26433 29-831): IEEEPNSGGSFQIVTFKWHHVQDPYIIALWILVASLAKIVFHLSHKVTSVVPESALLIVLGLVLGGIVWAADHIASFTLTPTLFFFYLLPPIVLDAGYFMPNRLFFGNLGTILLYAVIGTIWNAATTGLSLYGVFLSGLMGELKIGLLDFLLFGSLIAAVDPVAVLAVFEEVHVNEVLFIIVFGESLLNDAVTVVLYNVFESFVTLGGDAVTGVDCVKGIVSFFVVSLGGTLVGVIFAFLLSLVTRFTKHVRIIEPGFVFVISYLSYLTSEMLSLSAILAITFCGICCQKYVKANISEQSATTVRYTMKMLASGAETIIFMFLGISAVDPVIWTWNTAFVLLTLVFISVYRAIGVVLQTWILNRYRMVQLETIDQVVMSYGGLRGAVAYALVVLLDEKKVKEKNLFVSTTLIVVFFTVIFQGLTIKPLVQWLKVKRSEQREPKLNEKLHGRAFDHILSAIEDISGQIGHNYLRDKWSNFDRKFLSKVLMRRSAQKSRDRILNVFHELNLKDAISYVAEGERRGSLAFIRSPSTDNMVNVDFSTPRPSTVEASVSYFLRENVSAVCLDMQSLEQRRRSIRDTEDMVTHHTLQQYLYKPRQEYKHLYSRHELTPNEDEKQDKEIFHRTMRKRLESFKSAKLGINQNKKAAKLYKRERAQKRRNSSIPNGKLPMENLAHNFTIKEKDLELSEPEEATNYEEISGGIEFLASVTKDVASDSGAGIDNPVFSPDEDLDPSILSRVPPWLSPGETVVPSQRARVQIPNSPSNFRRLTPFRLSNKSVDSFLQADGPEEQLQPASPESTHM
# Method: Cell-based assay of NHE-3 activity (rat NHE-3 prompt inhibition)
# Test conditions: OK cells with rat NHE-3 gene, compound present during pH recovery; read-out: Rat NHE3 pIC50 (prompt) (converted)

Compound structure	Target or system	IC50
CCCCCCCCCCC(=O)NC(CCC(=O)NCCOCCOCCOCCNS(=O)(=O)c1cccc([C@@H]2CN(C)Cc3c(Cl)cc(Cl)cc32)c1)(CCC(=O)NCCOCCOCCOCCNS(=O)(=O)c1cccc([C@@H]2CN(C)Cc3c(Cl)cc(Cl)cc32)c1)CCC(=O)NCCOCCOCCOCCNS(=O)(=O)c1cccc([C@@H]2CN(C)Cc3c(Cl)cc(Cl)cc32)c1	Rat NHE-3 (Rattus norvegicus, UniProt P26433)	> 10 µM

**Q:** Given the compound CN(C)CC(=O)NC(CCC(=O)NCCOCCOCCNS(=O)(=O)c1cccc([C@@H]2CN(C)Cc3c(Cl)cc(Cl)cc32)c1)(CCC(=O)NCCOCCOCCNS(=O)(=O)c1cccc([C@@H]2CN(C)Cc3c(Cl)cc(Cl)cc32)c1)CCC(=O)NCCOCCOCCNS(=O)(=O)c1cccc([C@@H]2CN(C)Cc3c(Cl)cc(Cl)cc32)c1 , write its reported IC50.
**A:** < 0.1 µM

**Q:** Annotate the compound CC(=O)C(CCC(=O)NCCOCCOCCNS(=O)(=O)c1cccc([C@@H]2CN(C)Cc3c(Cl)cc(Cl)cc32)c1)(CCC(=O)NCCOCCOCCNS(=O)(=O)c1cccc([C@@H]2CN(C)Cc3c(Cl)cc(Cl)cc32)c1)CCC(=O)NCCOCCOCCNS(=O)(=O)c1cccc([C@@H]2CN(C)Cc3c(Cl)cc(Cl)cc32)c1 with its measured IC50.
**A:** 0.1 to 10 µM

**Q:** Please supply the value of reported IC50 for the item CN1Cc2c(Cl)cc(Cl)cc2[C@H](c2cccc(S(=O)(=O)NCCOCCOCCOCCNC(=O)CCC(N)(CCC(=O)NCCOCCOCCOCCNS(=O)(=O)c3cccc([C@@H]4CN(C)Cc5c(Cl)cc(Cl)cc54)c3)CCC(=O)NCCOCCOCCOCCNS(=O)(=O)c3cccc([C@@H]4CN(C)Cc5c(Cl)cc(Cl)cc54)c3)c2)C1
**A:** < 0.1 µM

**Q:** Retrieve IC50 measured for CN1Cc2c(Cl)cc(Cl)cc2[C@H](c2cccc(S(=O)(=O)NCCOCCOCCNC(=O)N(C)CCCN(CCCN(C)C(=O)NCCOCCOCCNS(=O)(=O)c3cccc([C@@H]4CN(C)Cc5c(Cl)cc(Cl)cc54)c3)CCCN(C)C(=O)NCCOCCOCCNS(=O)(=O)c3cccc([C@@H]4CN(C)Cc5c(Cl)cc(Cl)cc54)c3)c2)C1 and print it.
**A:** 0.1 to 10 µM

**Q:** Supply measured IC50 of CN1Cc2c(Cl)cc(Cl)cc2[C@H](c2cccc(S(=O)(=O)NCCOCCOCCNC(=O)CCC(N)(CCC(=O)NCCOCCOCCNS(=O)(=O)c3cccc([C@@H]4CN(C)Cc5c(Cl)cc(Cl)cc54)c3)CCC(=O)NCCOCCOCCNS(=O)(=O)c3cccc([C@@H]4CN(C)Cc5c(Cl)cc(Cl)cc54)c3)c2)C1 in your reply.
**A:** < 0.1 µM

====

# Target or system: Rat NHE-3 (Rattus norvegicus)
# Construct: expressed in transfected cells; host or cells: Opossum kidney (OK) cells (ATCC), transfected by electroporation
# Method: Cell-based assay of NHE-3 activity (rat NHE-3 prompt inhibition)
# Test conditions: OK cells with rat NHE-3 gene, compound present during pH recovery
Metric: Rat NHE3 pIC50 (prompt)

Compound structure	Metric	Value measured
CN1Cc2c(Cl)cc(Cl)cc2[C@H](c2cccc(S(=O)(=O)NCCOCCOCCNC(=O)NCCCC(CCCNC(=O)NCCOCCOCCNS(=O)(=O)c3cccc([C@@H]4CN(C)Cc5c(Cl)cc(Cl)cc54)c3)(CCCNC(=O)NCCOCCOCCNS(=O)(=O)c3cccc([C@@H]4CN(C)Cc5c(Cl)cc(Cl)cc54)c3)NC(=O)COCC(=O)O)c2)C1	Rat NHE3 pIC50 (prompt)	C (C NHE3 pIC50 > 7)
CN1Cc2c(Cl)cc(Cl)cc2[C@H](c2cccc(S(=O)(=O)NCCOCCOCCNC(=O)NCCC(CCNC(=O)NCCOCCOCCNS(=O)(=O)c3cccc([C@@H]4CN(C)Cc5c(Cl)cc(Cl)cc54)c3)(CCNC(=O)NCCOCCOCCNS(=O)(=O)c3cccc([C@@H]4CN(C)Cc5c(Cl)cc(Cl)cc54)c3)NC(=O)COCC(=O)O)c2)C1	Rat NHE3 pIC50 (prompt)	C (C NHE3 pIC50 > 7)
CN1Cc2c(Cl)cc(Cl)cc2[C@H](c2cccc(S(=O)(=O)NCCOCCOCCNC(=O)CCC(CCC(=O)NCCOCCOCCNS(=O)(=O)c3cccc([C@@H]4CN(C)Cc5c(Cl)cc(Cl)cc54)c3)(CCC(=O)NCCOCCOCCNS(=O)(=O)c3cccc([C@@H]4CN(C)Cc5c(Cl)cc(Cl)cc54)c3)NC(=O)N[C@@H](CO)C(=O)O)c2)C1	Rat NHE3 pIC50 (prompt)	C (C NHE3 pIC50 > 7)
CN1Cc2c(Cl)cc(Cl)cc2[C@H](c2cccc(S(=O)(=O)NCCOCCOCCN(C)C(=O)NCCCN(CCCNC(=O)N(C)CCOCCOCCNS(=O)(=O)c3cccc([C@@H]4CN(C)Cc5c(Cl)cc(Cl)cc54)c3)CCCNC(=O)N(C)CCOCCOCCNS(=O)(=O)c3cccc([C@@H]4CN(C)Cc5c(Cl)cc(Cl)cc54)c3)c2)C1	Rat NHE3 pIC50 (prompt)	B (B NHE3 pIC50 5-7)
CN1Cc2c(Cl)cc(Cl)cc2[C@H](c2cccc(S(=O)(=O)NCCOCCOCCN(C)C(=O)CCC(CCC(=O)N(C)CCOCCOCCNS(=O)(=O)c3cccc([C@@H]4CN(C)Cc5c(Cl)cc(Cl)cc54)c3)(CCC(=O)N(C)CCOCCOCCNS(=O)(=O)c3cccc([C@@H]4CN(C)Cc5c(Cl)cc(Cl)cc54)c3)NC(=O)NCC(=O)O)c2)C1	Rat NHE3 pIC50 (prompt)	C (C NHE3 pIC50 > 7)

**Q:** Hello, please tell me recorded Rat NHE3 pIC50 (prompt) for this one: CN1Cc2c(Cl)cc(Cl)cc2[C@H](c2cccc(S(=O)(=O)NCCOCCOCCNC(=O)CCC(CCC(=O)NCCOCCOCCNS(=O)(=O)c3cccc([C@@H]4CN(C)Cc5c(Cl)cc(Cl)cc54)c3)(CCC(=O)NCCOCCOCCNS(=O)(=O)c3cccc([C@@H]4CN(C)Cc5c(Cl)cc(Cl)cc54)c3)NC(=O)N3CCN(CCOCCO)CC3)c2)C1
**A:** C (C NHE3 pIC50 > 7)

**Q:** Give the reported Rat NHE3 pIC50 (prompt) for this compound. CCN(CCOCCOCCNC(=O)NCCCN(CCCNC(=O)NCCOCCOCCN(CC)S(=O)(=O)c1cccc([C@@H]2CN(C)Cc3c(Cl)cc(Cl)cc32)c1)CCCNC(=O)NCCOCCOCCN(CC)S(=O)(=O)c1cccc([C@@H]2CN(C)Cc3c(Cl)cc(Cl)cc32)c1)S(=O)(=O)c1cccc([C@@H]2CN(C)Cc3c(Cl)cc(Cl)cc32)c1
**A:** B (B NHE3 pIC50 5-7)

**Q:** Supply Rat NHE3 pIC50 (prompt) value. Item: CN1CCN(C(=O)NC(CCC(=O)NCCOCCOCCNS(=O)(=O)c2cccc([C@@H]3CN(C)Cc4c(Cl)cc(Cl)cc43)c2)(CCC(=O)NCCOCCOCCNS(=O)(=O)c2cccc([C@@H]3CN(C)Cc4c(Cl)cc(Cl)cc43)c2)CCC(=O)NCCOCCOCCNS(=O)(=O)c2cccc([C@@H]3CN(C)Cc4c(Cl)cc(Cl)cc43)c2)CC1
**A:** B (B NHE3 pIC50 5-7)

Measured values drawn from patent US10385024B2 for this set.
